Every entry's value here was drawn from a melting point compilation (Tetko et al.; mined from patent text by program, amines drawn as free bases though some values may be those of a salt).

Exercise: for every item that follows, state its recorded melting point.

Q) Entry under review: O=C(O)c1cccc(N2C(=O)c3ccc(C(=O)O)cc3C2=O)c1 . Reported melting point?
A) > 380 °C

Q) Same question for CCOCN(C(=O)N(COCc1ccccc1)c1nc(OCC(F)(F)F)cc(OCC(F)(F)F)n1)c1ccc(C(F)(F)F)cc1 please.
A) 62 to 65 °C

Q) Same question for Cn1cc(C2CCN(CCCCNC(=O)c3sc(-c4ccc(C(F)(F)F)cc4)nc3CO)CC2)c2ccccc21 please.
A) 160 °C

Q) Same question for COC(C)=CC(=O)Nc1ccc(Cl)c(Cl)c1 please.
A) 123 °C

Q) Same question for CCOC(=O)CCc1cccc2c(=O)c3cc(C(=O)OC)c(OCCCCC=Cc4ccc(OC)cc4)cc3oc12 please.
A) 107 to 109 °C

Q) Same question for Nc1nc(-c2c(-c3ccccc3)c3ccccc3[nH]c2=O)cs1 please.
A) > 220 °C

Q) Same question for COc1ccc2c(c1)CCC(C=O)=C2C please.
A) 70 to 72 °C

Q) Same question for COn1c(C2CCCCC2)nc2c(N)nc3ccccc3c21 please.
A) 220 to 222 °C

Q) Same question for COc1cc(C=C2CCN(C(=O)NOCc3ccccc3)C2=O)cc(OC)c1O please.
A) 167 to 170 °C

###

measured property: melting point

Q) Entry under review: CCCn1cc(Cc2ccc(C(=O)OC)cc2OC)c2cc(CCC(=O)O)ccc21 . Reported melting point?
A) 109 to 111 °C

Q) Same question for Cc1ccc2c3c(ccc2n1)OC[C@H](CN1CCN(c2ccc(C)c(C)c2)CC1)O3 please.
A) 118 to 120 °C

Q) Same question for CC1CC(=O)NN=C1c1ccc(NCCNC(N)=S)c([N+](=O)[O-])c1 (stereo unspecified) please.
A) 231 to 233 °C

Q) Same question for COc1cc(OC)c(NC(=O)[C@H]2[C@H](c3ccc(S(N)(=O)=O)cc3)C2(C)C)cc1Cl (relative stereo) please.
A) 248 to 251 °C

Q) Same question for CCN1C(=O)C(C)(C)C(=O)N(C)c2cc(CN(CCn3ccc4sccc4c3=O)Cc3cc(C)nn3C)ccc21 please.
A) 144 to 146 °C

Q) Same question for c1ccc2c(c1)ccn2Nc1ccncn1 please.
A) 81 to 85 °C

Q) Same question for Cc1c(-c2ccccc2)oc2c(C(=O)NCCO)cccc2c1=O please.
A) 206 to 208 °C

Q) Same question for CCCCCCCCCCCCCCCCOCC(CO)CF (stereo unspecified) please.
A) 34 °C

Q) Same question for C=CCN1CCc2cc(OC)c(O)c3c2C1Cc1cc(OC)c(OC)cc1-3 (single isomer, unassigned; (+)) please.
A) 85 to 93 °C

Q) Same question for O=C(O)[C@@H]1CSCN1C(=O)CCc1ccccc1 please.
A) 93 to 95 °C

Q) Same question for COC(=O)c1ccccc1NC(=O)CNc1ccccc1Br please.
A) 89 to 91 °C

Q) Same question for NC(=O)c1ccc(OCCn2ccnc2)cc1 please.
A) 148 to 149 °C

Q) Same question for C=CCNc1nc(NCCCCCCC)c2scc(C)c2n1 please.
A) 56 to 57 °C

Q) Same question for CCCCn1c(=O)[nH]c(=S)c2[nH]c(CC)nc21 please.
A) 206 to 207 °C

Q) Same question for c1cc(-c2noc(C3CC3)n2)ncn1 please.
A) 89 to 94 °C

Q) Same question for OCCCC(O)c1ccccc1 (stereo unspecified) please.
A) 63 to 68 °C

Q) Same question for CN(C)c1nc(N)nc2c1ncn2C1CC(F)C(CO)O1 (stereo unspecified) please.
A) 96 to 100 °C

Q) Same question for C[C@H](N=C(C(N)=O)C(C)(C)C)c1ccccc1 please.
A) 100 to 101 °C

Q) Same question for CN(C1CCN(Cc2csnn2)CC1)S(=O)(=O)c1ccc(Nc2nccc(Nc3ccc(F)c(F)c3)n2)cc1 please.
A) 172 to 173 °C

Q) Same question for CCOC(=O)c1cn2c3ccc(Br)cc3c3cc(OC)cc(c1=O)c32 please.
A) 95.6 to 97.6 °C

Q) Same question for Nc1cc(C=C2c3ccccc3CCc3ccccc32)ccc1O please.
A) 159 °C

###

measured property: melting point

Q) Entry under review: O=C(NC1CCN(CCCc2ccc(Cl)cc2)C1)C12CC3CC(CC(C3)C1)C2 (stereo not given) . Reported melting point?
A) 117 to 119 °C

Q) Same question for O=C(O)CCCCCCCCc1ccco1 please.
A) 31 to 32 °C

Q) Same question for C=CC(c1cn(-c2ccccc2)nc1OCc1ccc(OCc2nc(-c3ccco3)oc2C)c(OC)c1)n1cncn1 (stereo not given) please.
A) 115 to 116 °C

Q) Same question for CC(C)C(OC(=O)/C=C/c1ccccc1)OC(=O)NC1(C(=O)O)CC1 (stereo not given) please.
A) 148 to 150 °C

Q) Same question for O=C(Nc1ccc(S(=O)(=O)c2ccccc2)cc1)C(O)(C(F)F)C(F)F please.
A) 105 to 108 °C

###

measured property: melting point

Q) Entry under review: CCOC(=O)C1=C(C)Nc2nc[nH]c(=O)c2C1c1ccccc1 (configuration not stated) . Reported melting point?
A) 303 to 305 °C

Q) Same question for CCCCCC(=O)Nc1ccn(C2OC(CO)C(O)C2O)c(=O)n1 (configuration not stated) please.
A) 131 to 136 °C

Q) Same question for CCNC(=O)OC1=C(c2ccccc2)Oc2ccccc2-n2cccc21 please.
A) 74 to 75 °C

Q) Same question for Cc1noc(=O)n1C/C(F)=C\CCI please.
A) 58.1 to 58.6 °C

Q) Same question for Cc1c(Cl)cccc1N=Cc1ccccc1O please.
A) 95 to 97 °C

Q) Same question for C#CCCn1ncc2c(N)c(C(=O)OCC=C)c(C)nc21 please.
A) 115 to 116 °C

Q) Same question for Nc1cc(-c2ccoc2)ccc1Nc1cccc(C(=O)O)c1 please.
A) 211 to 212 °C

Q) Same question for CCCCCCCCCCCCCCCCOc1cccc(O)c1C please.
A) 53 to 54 °C

Q) Same question for CC(=O)OCC1OC(n2ccc3c(C)cccc32)C(OC(C)=O)C(OC(C)=O)C1OC(C)=O (configuration not stated) please.
A) 156 to 157 °C

Q) Same question for Cc1cc(CC2(Cc3cc(C)nc(Cl)c3)c3ccccc3-c3ncccc32)cc(Cl)n1 please.
A) 159 to 160 °C

Q) Same question for C[N+](C)(CCl)CCCC(=O)[O-] please.
A) 100 to 101 °C

Q) Same question for c1ccc2c(c1)CCN(Cc1n[nH]c3ccccc13)C2 please.
A) 151 to 152 °C

Q) Same question for COc1nn(CC(=O)C2CC2)c(=O)s1 please.
A) 98 to 100 °C

Q) Same question for CCOC(=O)c1ccccc1SC1C(=O)N(c2c(Cl)cc(Cl)cc2Cl)N=C1OC (configuration not stated) please.
A) 185 to 187 °C

Q) Same question for COc1cc2c(c(C(C(N)=O)c3ccccc3)c1)CC(C)O2 (configuration not stated) please.
A) 148 °C

Q) Same question for CCOC(=O)c1cn(C2CC2)c2c(F)c(N3CCN(C)CC3)c(F)c([Si](C)(C)C)c2c1=O please.
A) 231 to 233 °C

Q) Same question for CCNS(=O)(=O)c1ccc(C2=C(c3ccccc3)C(=O)C(C)(C)O2)cc1Cl please.
A) 72 to 73 °C

Q) Same question for COC(=O)CCc1cnoc1-c1ccc(-c2ccccc2)cc1 please.
A) 103 to 104 °C

Q) Same question for CC1(C)CCC(C)(C)c2cc(-c3ccc4cc(C(=O)O)cc(O)c4c3)ccc21 please.
A) 299 °C

Q) Same question for FC(F)(F)c1cc(-c2ccc(Cl)nn2)ccc1Cl please.
A) 211 to 214 °C

Q) Same question for NC(N)=NC(=O)Cn1c(Cl)ccc1Cl please.
A) 224 to 225 °C

Q) Same question for COC(=O)Cc1cscc1C(=O)O please.
A) 121 to 122 °C

###

Exercise: for every item that follows, state its recorded melting point.

Q) Entry under review: Cc1nc(-c2cn(CCC3CC3)nn2)sc1C(=O)NCc1cccnc1 . Reported melting point?
A) 124 to 125 °C

Q) Same question for CC(C)(C)c1ccc(C#N)cc1N please.
A) 94.5 to 95 °C

Q) Same question for C#CCOc1cc(-c2cc(C)c(C(F)(F)F)n(C)c2=O)c(F)cc1Cl please.
A) 107 to 108 °C

Q) Same question for CCn1c(C)nc(OCc2ccc(OCc3ccc(F)cc3)cc2)c(C)c1=O please.
A) 81 to 82.3 °C

Q) Same question for CCCc1ccc(C(=O)O)c(C(=O)O)n1 please.
A) 149 to 153 °C

Q) Same question for CCc1cc(C(=O)c2ccccc2Cl)c(-n2c(C)nnc2CNC(=O)/C=C/c2ccccc2)s1 please.
A) 150 to 151 °C

Q) Same question for O=C(O)C1(c2ccc(Nc3nc(C4CCCC4)nc4c3CCC4)cc2)CCCC1 please.
A) 321 to 325 °C

Q) Same question for Cc1[nH]cnc1CSCCNc1ncc(Cc2ccc(Cl)cc2)c(=O)[nH]1 please.
A) 204 to 206 °C

Q) Same question for CN1CCN(c2ccc(Cl)nn2)CC1 please.
A) 106 to 107 °C

Q) Same question for Cc1cc(CC#N)c(CC#N)cc1C please.
A) 103 to 104 °C

Q) Same question for O=C(O)c1ccc(-c2nn(-c3ccccc3C(=O)O)c3ccc([N+](=O)[O-])cc23)cc1 please.
A) 348 to 350 °C

Q) Same question for C=CCOc1ccccc1N(CC1CO1)S(C)(=O)=O (stereo unspecified) please.
A) 78 °C

Q) Same question for CCOC(=O)CCCC(=O)c1ccc(OCCCCCBr)c(CCC(=O)OCC)c1 please.
A) 48 to 49 °C

Q) Same question for CCCCCCCCCCCCCCCCCCOS(=O)(=O)NC(=O)Nc1c(C(C)C)cccc1C(C)C please.
A) 95 to 98 °C

Q) Same question for CC(=O)N(Nc1ccc(Cl)cc1F)c1c(C#N)cnc2cc(O)ccc12 please.
A) 182 to 191 °C

Q) Same question for Cc1nc(C(C)C)nc(C)c1N1CCCn2c1nc1c(Cl)ccc(C(OC(F)F)C(F)(F)F)c12 (stereo unspecified) please.
A) 204 to 206 °C

Q) Same question for CC=Cn1c(C(F)(F)F)nn(-c2c([N+](=O)[O-])cc(C(F)(F)F)cc2[N+](=O)[O-])c1=O please.
A) 136 °C

Q) Same question for O=C1CCCC(O)=C1NC(=O)C1CC1 please.
A) 82 °C

Q) Same question for Cc1cc(NC2=NCCN2)n(C)n1 please.
A) 167 to 169 °C

Q) Same question for Cc1c(C)n(CCCF)c2c(OCc3ccccc3)nncc12 please.
A) 100 to 101 °C

Q) Same question for CCCc1nn(-c2ccc(C(F)(F)F)cc2)cc1CCCOc1c(CC(=O)O)cccc1OC please.
A) 95 to 96 °C
